- Target under test: T1, T25-HP1492 (Nfu) (Helicobacter pylori strain 26695, UniProt O26025 2-89)
- T1 sequence (looked up): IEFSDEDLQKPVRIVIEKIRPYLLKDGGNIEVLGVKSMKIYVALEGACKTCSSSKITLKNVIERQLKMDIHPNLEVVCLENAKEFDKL
- Assay name: two-hybrid
Result type: growth OD595 in M63-maltose

Binder: T18-HP1268 (natural protein, Helicobacter pylori strain 26695, UniProt O25858 2-220, looked up) AKQEYKQLPKRAEVHSATEQFKDTVKTSLGLDLFKGLGLTIKEFFSPSVTIHYPMEQLPLSPRYRAVHNLQRLLDSGSERCIGCGLCEKICTSNCIRIITHKGEDNRKKIDSYTINLGRCIYCGLCAEVCPELAIVMGNRFENASTQRSQYGSKSEFLTSEQDAKNCSHAEFLGFGAVSPNYNERMQATPLDYVQEPSKEESQEETPTNPESNKGDENV
Endpoint result: 0.18 OD595
--
Binder: T18-HP0220 (natural protein, Helicobacter pylori strain 26695, UniProt O25008 2-387, looked up) LQRIYLDNNATTRIDPKVKEIMDPFLRDHYGNPSSLHQFGTETHPAIAEALDKLYKGINARDIDDVIITSCATESNNWVLKGVYFDECLKKGKNHIVTTVAEHPAVRSTCNFLESLGVEVTYLPINEHGSITAEQVKEAITEKTALVSVMWANNETGLIFPIEEIGAICKEKGVLFHTDAVQAIGKIPVDVLKANADFLSFSAHKFHGPKGIGGLYIRSGVGLTPLFHGGEHMNGRRSGTLNVPYIVGMGEAMKLAVEHLDYEKEVVGKLRDKLEEALLKIPDVMVVGDRIHRVPNTTLVSVRGIEGEAMLWDLNRSNIAASTGSACASEDLEANPVMVAIGASKELAHTAIRLSLSRFNTEAEIDKTIEVFSQAAVRLRNISSSY
Endpoint result: 0.22 OD595
--
Binder: T18-HP0277 (natural protein, Helicobacter pylori strain 26695, UniProt O25054 2-84, looked up) SLLVNDECIACDACREECPSEAIEEGDPIYNIDPDRCTECYGYDDDEPRCVSVCPVDAILPDPNNAESKEELKYKYESLKEQD
Endpoint result: 0.4 OD595
